Data credit: ChEMBL document CHEMBL4130621

Target: Rap guanine nucleotide exchange factor 3 (Homo sapiens) (UniProt O95398)
Sequence (whole entry): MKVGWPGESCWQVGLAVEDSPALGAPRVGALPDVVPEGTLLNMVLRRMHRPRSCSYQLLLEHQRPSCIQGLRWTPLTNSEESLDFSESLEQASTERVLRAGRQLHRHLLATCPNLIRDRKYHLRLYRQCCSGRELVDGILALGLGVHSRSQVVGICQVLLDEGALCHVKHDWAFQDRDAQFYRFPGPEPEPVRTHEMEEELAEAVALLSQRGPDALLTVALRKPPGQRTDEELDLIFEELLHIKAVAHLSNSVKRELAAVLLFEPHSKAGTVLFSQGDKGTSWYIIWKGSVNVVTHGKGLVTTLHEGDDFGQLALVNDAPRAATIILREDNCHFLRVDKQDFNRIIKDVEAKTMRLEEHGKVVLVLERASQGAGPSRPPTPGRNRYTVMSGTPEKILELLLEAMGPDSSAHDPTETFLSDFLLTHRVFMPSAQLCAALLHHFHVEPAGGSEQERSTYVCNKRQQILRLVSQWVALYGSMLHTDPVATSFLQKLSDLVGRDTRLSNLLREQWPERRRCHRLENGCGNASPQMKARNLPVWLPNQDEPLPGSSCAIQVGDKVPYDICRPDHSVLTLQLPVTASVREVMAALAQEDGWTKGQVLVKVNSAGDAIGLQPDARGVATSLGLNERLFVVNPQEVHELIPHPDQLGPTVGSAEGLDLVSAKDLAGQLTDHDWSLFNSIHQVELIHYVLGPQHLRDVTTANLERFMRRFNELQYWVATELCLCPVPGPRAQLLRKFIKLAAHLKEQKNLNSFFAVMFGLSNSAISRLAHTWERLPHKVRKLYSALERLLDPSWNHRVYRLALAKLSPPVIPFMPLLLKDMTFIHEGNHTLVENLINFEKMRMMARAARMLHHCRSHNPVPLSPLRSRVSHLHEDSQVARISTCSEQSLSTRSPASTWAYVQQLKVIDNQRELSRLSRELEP
Experiment: Inhibition of recombinant human GST-tagged EPAC1 (149 to 881 residues) expressed in Escherichia coli Rosetta 2(DE3) assessed as reduction in guanine nucleotide exchange activity at 50 uM using BODIPY-labeled GDP loaded Rap1A by fluorescence assay relative to control
Recorded measurements of inhibition, one per entry
METRIC: inhibition (%)

>>> reported_value("CC1CCc2cc(F)ccc2N1C=O (stereo unspecified)")
5
>>> reported_value("CC1CCc2c(ccc(F)c2Br)N1C=O (stereo unspecified)")
42
>>> reported_value("CC1CCc2c(cc(Br)c(F)c2Br)N1 (stereo unspecified)")
74.1
>>> reported_value("CC1CCc2c(Br)c(F)c(Br)c(Br)c2N1C=O (stereo unspecified)")
46
>>> reported_value("CC1CCc2c(cc(Br)c(F)c2Br)N1C=O (stereo unspecified)")
88.3
>>> reported_value("CC(=O)N1c2cc(Br)c(F)c(Br)c2CCC1C (stereo unspecified)")
26.2

###

Molecular target: Rap guanine nucleotide exchange factor 3 (Homo sapiens)
Sequence (O95398 whole entry): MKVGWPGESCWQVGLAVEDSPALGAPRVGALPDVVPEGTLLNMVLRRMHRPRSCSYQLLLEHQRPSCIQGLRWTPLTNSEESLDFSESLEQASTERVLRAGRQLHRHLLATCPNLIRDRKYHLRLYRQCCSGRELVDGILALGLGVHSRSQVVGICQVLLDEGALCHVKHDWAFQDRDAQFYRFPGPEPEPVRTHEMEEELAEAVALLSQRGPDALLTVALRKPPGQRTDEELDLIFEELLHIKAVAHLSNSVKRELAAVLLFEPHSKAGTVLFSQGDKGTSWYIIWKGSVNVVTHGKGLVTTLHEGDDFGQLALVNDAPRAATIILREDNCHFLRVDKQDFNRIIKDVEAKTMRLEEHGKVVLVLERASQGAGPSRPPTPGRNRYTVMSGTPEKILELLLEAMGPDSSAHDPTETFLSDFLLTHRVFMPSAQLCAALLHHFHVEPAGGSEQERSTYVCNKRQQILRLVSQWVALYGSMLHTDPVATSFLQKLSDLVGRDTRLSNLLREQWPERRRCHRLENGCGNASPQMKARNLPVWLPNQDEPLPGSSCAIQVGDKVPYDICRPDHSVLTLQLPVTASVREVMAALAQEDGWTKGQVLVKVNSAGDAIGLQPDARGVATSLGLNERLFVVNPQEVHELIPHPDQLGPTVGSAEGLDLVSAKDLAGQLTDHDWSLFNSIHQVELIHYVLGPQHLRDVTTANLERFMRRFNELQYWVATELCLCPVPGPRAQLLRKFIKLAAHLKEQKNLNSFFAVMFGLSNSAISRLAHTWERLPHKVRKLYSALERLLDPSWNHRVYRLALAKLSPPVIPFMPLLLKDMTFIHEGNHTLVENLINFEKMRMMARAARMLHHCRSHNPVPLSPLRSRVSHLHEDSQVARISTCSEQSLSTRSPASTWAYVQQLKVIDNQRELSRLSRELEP
Experiment: Inhibition of recombinant human GST-tagged EPAC1 (149 to 881 residues) expressed in Escherichia coli Rosetta 2(DE3) assessed as reduction in guanine nucleotide exchange activity using BODIPY-labeled GDP loaded Rap1A by fluorescence assay
pIC50: −log10 of the molar value.
METRIC: pIC50

>>> reported_value("C[C@H]1CCc2c(cc(Br)c(F)c2Br)N1C=O")
4.50
>>> reported_value("C[C@@H]1CCc2c(cc(Br)c(F)c2Br)N1C=S")
4.75
>>> reported_value("C[C@@H]1CCc2c(cc(Br)c(F)c2Br)N1C=O")
5.48

###

Molecular target: Rap guanine nucleotide exchange factor 3 (Homo sapiens) (UniProt O95398)
Test: Inhibition of recombinant human GST-tagged EPAC1 (149 to 881 residues) expressed in Escherichia coli Rosetta 2(DE3) assessed as reduction in guanine nucleotide exchange activity at 10 uM using BODIPY-labeled GDP loaded Rap1A by fluorescence assay relative to control
Calls of active or inactive are those of the source. The calls are words filed in the database; no cut-off is given here.
METRIC: inhibition

>>> reported_value("C[C@H]1CCc2c(cc(Br)c(F)c2Br)N1")
"Active"
>>> reported_value("CC1CCc2c(cc(Br)c(F)c2Br)N1C=O (configuration not stated)")
"58.1%"
>>> reported_value("CC1CCc2cc(F)ccc2N1C=O (configuration not stated)")
"5.3%"
>>> reported_value("C[C@@H]1CCc2c(cc(Br)c(F)c2Br)N1")
"Active"
>>> reported_value("C[C@@H]1CCc2c(ccc(F)c2Br)N1C=O")
"Active"
>>> reported_value("C[C@H]1CCc2cc(F)ccc2N1C=O")
"Active"
>>> reported_value("CC(=O)N1c2cc(Br)c(F)c(Br)c2CCC1C (configuration not stated)")
"8.7%"
>>> reported_value("CC1CCc2c(cc(Br)c(F)c2Br)N1 (configuration not stated)")
"40.8%"
>>> reported_value("C[C@H]1CCc2c(ccc(F)c2Br)N1C=O")
"Active"
>>> reported_value("CC1CCc2c(ccc(F)c2Br)N1C=O (configuration not stated)")
"15.8%"
>>> reported_value("C[C@@H]1CCc2cc(F)ccc2N1C=O")
"Active"
>>> reported_value("CC1CCc2c(Br)c(F)c(Br)c(Br)c2N1C=O (configuration not stated)")
"23.6%"

###

Target: Rap guanine nucleotide exchange factor 4 (Homo sapiens, UniProt Q8WZA2)
Sequence (Q8WZA2 whole entry): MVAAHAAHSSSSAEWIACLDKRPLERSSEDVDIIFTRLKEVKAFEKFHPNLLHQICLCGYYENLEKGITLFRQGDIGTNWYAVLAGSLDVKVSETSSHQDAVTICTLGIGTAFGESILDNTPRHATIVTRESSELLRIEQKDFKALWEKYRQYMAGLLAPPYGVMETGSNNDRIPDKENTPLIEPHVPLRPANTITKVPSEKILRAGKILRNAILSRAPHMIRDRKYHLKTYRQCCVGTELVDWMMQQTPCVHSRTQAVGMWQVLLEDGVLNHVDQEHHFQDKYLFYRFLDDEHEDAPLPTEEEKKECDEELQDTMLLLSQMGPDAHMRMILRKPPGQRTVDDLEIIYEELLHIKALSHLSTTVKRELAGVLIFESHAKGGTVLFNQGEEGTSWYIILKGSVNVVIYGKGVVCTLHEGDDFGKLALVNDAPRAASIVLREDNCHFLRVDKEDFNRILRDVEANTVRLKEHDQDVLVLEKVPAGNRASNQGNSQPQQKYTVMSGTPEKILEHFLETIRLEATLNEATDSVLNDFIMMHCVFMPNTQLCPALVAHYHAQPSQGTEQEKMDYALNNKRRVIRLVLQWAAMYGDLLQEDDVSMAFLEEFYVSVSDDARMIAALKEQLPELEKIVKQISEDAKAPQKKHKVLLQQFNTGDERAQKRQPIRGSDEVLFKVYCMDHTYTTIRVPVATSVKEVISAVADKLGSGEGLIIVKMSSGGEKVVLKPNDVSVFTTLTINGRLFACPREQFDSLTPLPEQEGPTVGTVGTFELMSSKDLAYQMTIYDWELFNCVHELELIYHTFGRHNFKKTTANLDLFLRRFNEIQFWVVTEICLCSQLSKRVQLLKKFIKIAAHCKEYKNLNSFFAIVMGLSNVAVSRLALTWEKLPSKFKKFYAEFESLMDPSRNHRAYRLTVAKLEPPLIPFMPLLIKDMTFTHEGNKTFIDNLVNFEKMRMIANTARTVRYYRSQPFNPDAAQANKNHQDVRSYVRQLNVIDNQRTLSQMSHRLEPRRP
Assay: Inhibition of recombinant human GST-tagged EPAC2 expressed in Escherichia coli Rosetta 2(DE3) assessed as reduction in guanine nucleotide exchange activity using BODIPY-labeled GDP loaded Rap1A by fluorescence assay
METRIC: IC50 (µM)

>>> reported_value("C[C@H]1CCc2c(cc(Br)c(F)c2Br)N1C=O")
17.1
>>> reported_value("C[C@@H]1CCc2c(cc(Br)c(F)c2Br)N1C=O")
22.3
